Origin of values: the supplement of paper PMC6555819

Test system: LXRb:RXRa (NR concentration 270 nM, RXRa partner concentration 90 nM)
Assay: PBM binding z-score (relative to random genomic background probes); higher = stronger binding; sequences stand for … in GC…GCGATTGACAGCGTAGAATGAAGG
Entries are sorted into classes by PBM binding z-score as follows: class 1 (below 0.8), class 2 (0.8 to below 3), class 3 (3 or more)

Consider the following illustrative entries.
>  <Sequence String>
TCATATAGGTAAAAGTTGAAAGTCGGTGTGGTAA

>  <Label Class>
class 2

$$$$
>  <Sequence String>
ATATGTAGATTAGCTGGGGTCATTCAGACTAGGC

>  <Label Class>
class 3

$$$$
>  <Sequence String>
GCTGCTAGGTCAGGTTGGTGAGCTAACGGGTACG

>  <Label Class>
class 1

$$$$
>  <Sequence String>
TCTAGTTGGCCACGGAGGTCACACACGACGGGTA

>  <Label Class>
class 3

$$$$
>  <Sequence String>
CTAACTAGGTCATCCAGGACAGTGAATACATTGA

>  <Label Class>
class 2

$$$$

Req: Hi, small favor: classify `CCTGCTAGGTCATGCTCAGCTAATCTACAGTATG` by its PBM binding z-score when you get a moment.
Resp: class 2

Req: Another sequence to check: `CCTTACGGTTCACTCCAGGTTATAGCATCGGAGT`
Resp: class 3

Req: Next sequence up: `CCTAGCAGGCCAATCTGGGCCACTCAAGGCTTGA`
Resp: class 1

Req: Now try `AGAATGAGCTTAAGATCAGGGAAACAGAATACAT` .
Resp: class 1

Req: Also need `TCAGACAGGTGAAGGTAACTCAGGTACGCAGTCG` , thanks.
Resp: class 2
